Values were extracted from patent US8178506B2.

Test system: HSL
Assay: HSL mRNA expression in adipocytes (real-time PCR)
Assay type: cell-based, human
Details: differentiating adipocytes transfected with oligomeric compound; Table 75
In the oligonucleotide strings, read from the 5' end, every base follows the letter of its sugar. An asterisk marks phosphorothioate; unmarked linkages are phosphodiester. Other units and linkages are bracketed, terminal groups are in braces. A string of capitals states the bases alone. e = 2'-O-(2-methoxyethyl) (MOE); [5mC] = 5-methylcytosine
This listing pairs substances with measured HSL mRNA.

A selection of reference data follows.
Looking up 327940 (antisense eG*eA*eA*e[5mC]*eA*eG*eG*eT*eA*eG*eT*e[5mC]*eT*eG*eA*eA*e[5mC]*eA*e[5mC]*eT*eG*eG*eG) [compound 327940] , I see its HSL mRNA listed as 67 percentage of untreated control (UTC)

Short answer for 340350 (antisense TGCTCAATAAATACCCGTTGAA; all 2'-MOE, all phosphorothioate, methylation of C not given here) [compound 340350] : HSL mRNA was 45 percentage of untreated control (UTC)

Note to self: HSL mRNA recorded for 327911 (antisense eG*e[5mC]*eT*eA*e[5mC]*e[5mC]*eT*eG*e[5mC]*eA*e[5mC]*eT*eG*eT*eA*eA*eG*e[5mC]*eA*e[5mC]*eT*eT*eT*eT) [compound 327911] was 71 percentage of untreated control (UTC)

Noted for 328105 (antisense e[5mC]*e[5mC]*eT*e[5mC]*eA*eA*eT*eT*eA*eT*eT*eG*eG*eA*eA*eA*eT*e[5mC]*eA*e[5mC]*eA) [compound 328105] : its HSL mRNA reads 95 percentage of untreated control (UTC)

get_value(item= 346692 (UAAACGGAACCACUAGUGACUUG; all 2'-MOE, all phosphorothioate, methylation of C and T or U not given here) [compound 346692] , readout=HSL mRNA) returns 18 percentage of untreated control (UTC)

Briefly, HSL mRNA measured for 327969 (antisense eT*eG*eT*eG*eA*eG*eT*eT*e[5mC]*eT*eA*e[5mC]*e[5mC]*eA*eT*eT*eG*e[5mC]*e[5mC]*eA*eA*eA) [compound 327969] : 45 percentage of untreated control (UTC)

Given item 328107 (antisense e[5mC]*eT*eG*eT*eG*eA*e[5mC]*eT*eT*e[5mC]*eT*e[5mC]*eT*eA*eT*e[5mC]*eT*eG*e[5mC]*e[5mC]*eT) [compound 328107] , the value recorded as its HSL mRNA is 55 percentage of untreated control (UTC)

Record 327899 (antisense e[5mC]*eA*eG*eT*eG*eA*eA*eT*eT*e[5mC]*eT*eA*e[5mC]*e[5mC]*eA*eG*eT*eG*e[5mC]*e[5mC]*eA*eT*eA) [compound 327899] , field HSL mRNA: 27 percentage of untreated control (UTC)

Further cases:
Entry under test: 341795 (antisense AACCAAUGUGCAGACUACUGUA; all 2'-MOE, all phosphorothioate, methylation of C and T or U not given here) [compound 341795] . Its HSL mRNA was 74 percentage of untreated control (UTC)

Quick note, HSL mRNA for 327961 (antisense eG*eG*eG*eG*eT*eA*eT*eT*eT*eG*eA*e[5mC]*eA*eA*eA*e[5mC]*eT*eG*eA*e[5mC]*eA) [compound 327961] landed at 88 percentage of untreated control (UTC)
